System: P. falciparum female gametocytes
Assay: P. falciparum Dual Gamete Formation Assay (PfDGFA), female readout (Pfs25-positive female gametes)
Assay type: cell-based, Plasmodium falciparum NF54
Conditions: HepG2 Tox50 versus female IC50
Use Selectivity ratio F to assign classes; range list: bin 0: < 1; bin 1: ≥ 1 and < 2; bin 2: ≥ 2

>>> print(df.to_string())
                                    molecule  group_label
 0  COc1cc2nc(N3CCN(c4nc(N)c5cc(OC)c(OC)cc5n4)CC3)nc(N)c2cc1OC        bin 2
 1  CN1CCN(CCCNCc2cccc(-c3ccc(CNCCc4ccccc4)cc3)c2)CC1.O=C(O)C(F)(F)F        bin 1
 2  Cl.Clc1ccc(OCCC2CCN(CCCCCCCN3CCC(CCOc4ccc(Cl)c(Cl)c4)CC3)CC2)cc1Cl        bin 1
 3  COc1ccc2c(OC)c(CNCCCCCCNCc3ccc4cc(OC)ccc4c3OC)ccc2c1.CS(=O)(=O)O        bin 2
 4           CC(=NNC(=S)NCCc1ccccn1)c1ccccn1        bin 2
 5  CN(C)c1ccnc2ccc(NC(=O)Nc3ccnc4ccccc34)cc12        bin 2
 6  CCOCn1c(-c2ccccc2)cc2c3c(N)nc(N)nc3ccc21        bin 1
 7  COc1cc(Nc2nccc(-c3c(-c4cccc(NC(=O)c5c(F)cccc5F)c4)nn4ncccc34)n2)cc(OC)c1OC        bin 0
 8  C#C[C@H]1O[C@@H](n2cnc3c(Nc4cc(Br)cc(C(F)(F)F)c4)ncnc32)[C@H](O)[C@@H]1O        bin 2
 9  CN1CCN(c2ccc(Nc3ncc(C#N)c(Nc4ccccc4C(N)=O)n3)cc2)CC1.Cl        bin 0
10  CS(=O)(=O)O.FC(F)(F)COc1ccc(CCNCCCCNCCc2ccc(OCC(F)(F)F)c3ccccc23)c2ccccc12        bin 1
11  CS(=O)(=O)O.FC(F)(F)COc1c(CNCCCCCCNCc2ccc3ccccc3c2OCC(F)(F)F)ccc2ccccc12        bin 0
12  CNC(=O)c1ccccc1Nc1nc(Nc2ccc(N3CCN(C)CC3)nc2)ncc1C.Cl        bin 0
13  COc1cc2ccccc2cc1CCNCCCCNCCc1cc2ccccc2cc1OC.CS(=O)(=O)O        bin 1
14  Nc1cc(C=Cc2ccc([N+](=O)[O-])s2)nc2ccccc12        bin 1
15  CC(Cc1ccc(OCCCCOc2ccccc2)cc1)NCCC1CCCN1C (stereo not drawn)        bin 1
16  CN(C)CCCOc1ccc(CN2CCC(c3c[nH]c4ccc(NCC5CCCCC5)cc34)CC2)cc1.O=C(O)C(F)(F)F        bin 1
17  COc1c(CCNCCCCNCCc2cc(Cl)c3ccccc3c2OC)cc(Cl)c2ccccc12.CS(=O)(=O)O        bin 2
18  COc1ccc(C[C@H](N)C(=O)N[C@H]2[C@@H](O)[C@H](n3cnc4c(N(C)C)ncnc43)O[C@@H]2CO)cc1        bin 0
19  CCN(CC)CCOc1ccc(C(O)(C#CC(O)(c2ccc(Br)cc2)c2ccc(OCCN(CC)CC)cc2)c2ccc(Br)cc2)cc1 (stereo not drawn)        bin 1
20  CNCCNCc1ccc(-c2ccc(-c3nc4cccc(C)c4[nH]3)cc2)cc1.O=C(O)C(F)(F)F        bin 1
21  CC(C)S(=O)(=O)N1CCN(Cc2ccc3c(c2)nc(NC(=O)c2ccsc2)n3C[C@H](O)c2ccccc2)CC1        bin 0
22  Nc1nc(N)c2cc(NC(=O)c3ccc(Cl)c(Cl)c3)ccc2n1        bin 1
23  CS(=O)(=O)O.FC(F)(F)COc1ccc2ccccc2c1CCNCCCCNCCc1c(OCC(F)(F)F)ccc2ccccc12        bin 0
24  CS(=O)(=O)O.c1ccc2c(CNCCCCCCNCc3c(OCC4CC4)ccc4ccccc34)c(OCC3CC3)ccc2c1        bin 1
25  C[C@H](Cc1ccc(OCCCCCOc2ccc(C[C@@H](C)NC[C@H](O)c3cccc(Cl)c3)cc2)cc1)NC[C@H](O)c1cccc(Cl)c1.Cl        bin 1
26  O=C(c1ccc([N+](=O)[O-])o1)N1CCC(Cc2ccc(C(F)(F)F)cc2)CC1        bin 2
27  Cl.NCC1(c2nc(-c3ccc(Cl)c(O)c3)c(-c3ccncc3)[nH]2)CCCCC1        bin 2
28  CN(C)CCN(C)Cc1ccc(-c2ccc3c(Nc4ccc(Oc5ccccc5)cc4)ccnc3c2)o1        bin 0
